Below, each entry is listed alongside its reported AUC(0-t).
assay: Plasma pharmacokinetics of co-administered DMT and DMT-d10 by intravenous (bolus), oral gavage and inhalation administration to male rats; conditions: male, Sprague Dawley, rat, plasma, iv, 1 mg/kg, AUC0-1, plasma, 1 mg/kg (summary table)

>  <molecule>
CN(C)CCc1c[nH]c2ccccc12 [DMT, N,N-dimethyltryptamine]

>  <value unit>
ng·h/mL

>  <AUC(0-t)>
113

$$$$
>  <molecule>
[2H]C([2H])([2H])N(C([2H])([2H])[2H])C([2H])([2H])C([2H])([2H])c1c[nH]c2ccccc12 [DMT-d10]

>  <value unit>
ng·h/mL

>  <AUC(0-t)>
74.6

$$$$
